# experimentalTarget: mu receptors
# method: in vitro affinity for mu receptors
# conditionsUsed: Table 3; read-out: mu rec. IC50
resultType: log10 of IC50 (log10 of the value in µM)
Quick note: numbers are log10 of IC50, with µM as the unit.

Enquiry: Look up log10 of IC50 of CCC(CC=Cc1ccccc1)(c1ccccc1)N(C)CC1CC1 (centres unmarked) and report it.
Return: 1.20

Enquiry: Look up log10 of IC50 of CCC(CC=Cc1ccccc1)(c1cccs1)N(C)CC1CC1 (centres unmarked) and report it.
Return: 0.19

Enquiry: Look up log10 of IC50 of CCC(CC=Cc1ccccc1)(c1ccccc1)N(C)CC1CCC1 (centres unmarked) and report it.
Return: 0.86

Enquiry: Look up log10 of IC50 of CC(C)C(CC=Cc1ccccc1)(c1ccccc1)N(C)CC1CC1 (centres unmarked) and report it.
Return: 1.53

Enquiry: Look up log10 of IC50 of CCC(CC=Cc1ccccc1)(c1ccccc1)N(C)CCC1CC1 (centres unmarked) and report it.
Return: 0.31

Enquiry: Look up log10 of IC50 of CN(CC1CC1)C(C)(CC=Cc1ccccc1)c1ccccc1 (centres unmarked) and report it.
Return: 1.01

Enquiry: Look up log10 of IC50 of CCC(C[C@@H]1C[C@H]1c1ccccc1)(c1cccs1)N(C)CC1CC1 (relative stereo) and report it.
Return: 0.48

---

# experimentalTarget: sigma receptors (Cavia porcellus)
# Construct: sigma receptors of the cerebral membranes of the guinea-pig used in this study; from tissue; host or cells: guinea-pig cerebral membranes
# Sequence (Q60492 whole entry): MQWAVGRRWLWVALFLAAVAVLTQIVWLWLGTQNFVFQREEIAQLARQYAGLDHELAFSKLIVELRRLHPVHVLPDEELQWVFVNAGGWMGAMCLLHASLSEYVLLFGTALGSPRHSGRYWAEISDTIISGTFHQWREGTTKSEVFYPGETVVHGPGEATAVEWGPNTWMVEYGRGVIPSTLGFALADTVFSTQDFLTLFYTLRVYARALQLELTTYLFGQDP
# method: in vitro affinity for sigma receptors, competition with (+)[3H]SKF10,047
# Type: binding, guinea-pig (cerebral membranes)
# conditionsUsed: sigma rec. IC50, Table 3
# Description: The test is carried out by incubating solutions of suitable concentrations of the products with standard samples of membranes and determining, after filtration, the residual radioactivity of the solution.
Where a name gives a salt, the structure may show the parent alone.
resultType: IC50 (nM)
Return type: number; implicit unit nM.

Enquiry: Look up IC50 of CCC(CC=Cc1ccccc1)(c1ccccc1)N(C)CC1CC1 (single isomer, unassigned) [Example 10, hydrochloride] and report it.
Return: 13

Enquiry: Look up IC50 of CCC(CC=Cc1ccccc1)(c1ccccc1)N(C)CC1CC1 (single isomer, unassigned) [Example 11, hydrochloride] and report it.
Return: 210

Enquiry: Look up IC50 of CCC(CC=Cc1ccccc1)(c1ccccc1)N(C)CC1CC1 (stereo not drawn) [Example 9] and report it.
Return: 24
